Experiment: Inhibition of N-terminal hexa-histidine tagged Dengue virus 2 NS2B/NS3 protease I30A/L31A mutant expressed in Escherichia coli BL21-Gold (DE3) in presence of N-benzylmaleimide using fluorogenic AMC-substituted peptide boc-GRR-7-amino-4-methylcoumarin measured every 30 secs for 10 mins by fluorometric assay
Design: species or system dengue virus type 2
READOUT KIND: IC50
I'd appreciate it if you wrote the number followed by its unit.

In: Write down IC50 measured for item "O=C(Nc1nc2cc(O)c(O)cc2s1)c1ccccc1Oc1ccc2cc(O)ccc2c1"
Out: 4.96 µM

###

Below, each entry is listed alongside its reported Kd.
Molecular target: Nonstructural protein 3 (Zika virus, UniProt A0A024AXB9)
Sequence (A0A024AXB9 whole entry): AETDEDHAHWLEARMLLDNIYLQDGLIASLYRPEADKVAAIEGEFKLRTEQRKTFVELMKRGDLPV
Assay: Binding affinity to N-terminal hexa-histidine tagged Zika virus NS2B/NS3 protease expressed in Escherichia coli BL21-Gold (DE3) by microscale thermophoresis method
Please respond with the number in nM and leave the unit unwritten.

{"SMILES REPRESENTATION": "Cc1ccc(S(=O)(=O)N2CCC[C@@H]2C(=O)Nc2nc3cc(O)c(O)cc3s2)cc1", "TARGET": "Nonstructural protein 3 (Zika virus, UniProt A0A024AXB9)", "UNIT ABBREV": "nM", "Kd": 490}

In: Tell me its Kd given "Cc1ccc(S(=O)(=O)N2CCC[C@H]2C(=O)Nc2nc3cc(O)c(O)cc3s2)cc1" as the entry.
Out: 240
